Biological target: Histone deacetylase 8 (Homo sapiens, UniProt Q9BY41)
Sequence (Q9BY41 whole entry): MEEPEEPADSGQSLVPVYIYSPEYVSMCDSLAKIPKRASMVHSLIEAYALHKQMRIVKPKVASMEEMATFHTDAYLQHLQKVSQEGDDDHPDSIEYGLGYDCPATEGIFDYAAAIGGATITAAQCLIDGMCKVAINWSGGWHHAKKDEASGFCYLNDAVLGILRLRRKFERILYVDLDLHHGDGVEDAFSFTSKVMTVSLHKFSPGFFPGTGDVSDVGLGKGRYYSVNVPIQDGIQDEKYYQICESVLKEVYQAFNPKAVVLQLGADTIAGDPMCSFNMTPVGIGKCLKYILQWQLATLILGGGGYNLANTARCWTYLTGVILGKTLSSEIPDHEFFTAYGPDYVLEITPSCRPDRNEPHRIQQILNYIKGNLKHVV
metric-name: IC50 (µM)
Give the value in µM but do not write µM after it.

Recorded IC50, per entry:
CCC(=O)CCCCC[C@H](NC(=O)C1CCOCC1)c1[nH]c(-c2ccc(F)cc2)nc1C(N)=O: 7.57
CCC(=O)CCCCCC(NC(=O)c1cncs1)c1[nH]c(-c2ccccc2)nc1C(N)=O (stereo not drawn): 4.7
CCC(=O)CCCCC[C@H](NC(=O)CN(C)C)c1[nH]c(-c2ccc(F)cc2)nc1C#N: 29.5
CCC(=O)CCCCC[C@H](NC(=O)C1CN(C)C1)c1[nH]c(-c2ccc(F)cc2)nc1C(N)=O: 5.38
CCC(=O)CCCCC[C@H](NC(=O)[C@H]1CC12CCN(C)CC2)c1[nH]c(-c2ccc3nc(C)ccc3c2)nc1C#N: 9.83
CCC(=O)CCCCCC(NC(=O)c1cncs1)c1[nH]c(-c2ccccc2)nc1C(=O)N1CCOCC1 (stereo not drawn): 16.8

Now look at this entry.
Request: Give the measured IC50 of CCC(=O)CCCCCC(NC(=O)c1cncs1)c1[nH]c(-c2ccccc2)nc1C(=O)NC (stereo not drawn) .
Response: 7.47
